Where do these numbers come from? They come from the Human Domainome abundance scans (Beltran et al. 2025).

Kindly state abundance fitness for each of the entries shown.
B1: Chromodomain-helicase-DNA-binding protein 4, residues 365 to 417; numbered along this chain, Q14839 (parent)
chain: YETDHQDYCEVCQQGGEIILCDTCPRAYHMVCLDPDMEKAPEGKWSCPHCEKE

Variants of: B1
protocol-text: abundance fitness (aPCA) (normalised: wild type 0, dead -1); higher = more abundant; growth selection in yeast, the domain comes from the species named
test-conditions: Homo sapiens
Quick one: just the number, no unit, thanks!

Memo: `D7E` , reported abundance fitness: 0.015

Memo: `K52N` , reported abundance fitness: -0.007

Memo: `C47D` , reported abundance fitness: -0.468

Memo: `C32D` , reported abundance fitness: -0.486

Memo: `T3I` , reported abundance fitness: 0.111

Memo: `D34H` , reported abundance fitness: -0.069

Memo: `H29C` , reported abundance fitness: 0.028

Memo: `T23P` , reported abundance fitness: -0.922

Memo: `R26G` , reported abundance fitness: -0.112

Memo: `E10H` , reported abundance fitness: -0.383

Memo: `Y28S` , reported abundance fitness: -0.271

Memo: `K39W` , reported abundance fitness: -0.172

Memo: `K44W` , reported abundance fitness: 0.098

Memo: `C24Y` , reported abundance fitness: -1.31

Memo: `E38L` , reported abundance fitness: -0.197

Memo: `H49M` , reported abundance fitness: -0.354

Memo: `E38R` , reported abundance fitness: -0.029

Memo: `C9H` , reported abundance fitness: -0.739

Memo: `V31Q` , reported abundance fitness: -0.1

Memo: `P25V` , reported abundance fitness: -0.241

Memo: `C47Q` , reported abundance fitness: -0.833

Memo: `C21P` , reported abundance fitness: -1.11
